Tested on: OVCAR-5 ovarian
Test: NCI tumour cell line growth inhibition, 48 h
readoutLabel: TGI

Look over these answered cases.
CC(C)=CCc1c(O)cc(/C=C/c2cc(O)c3c(c2)C[C@@H]2C(C)(C)[C@H](O)[C@H](O)C[C@@]2(C)O3)cc1O = > 7.96 µM
O=C(NO)c1coc2ccccc2c1=O = > 100 µM

The record that follows has no TGI shown yet.
Query CC(=O)N1CC2Nc3ccccc3C2CC1CO (stereo not drawn) yields TGI of > 100 µM

====

Test system: DU-145 prostate
Assay: NCI tumour cell line growth inhibition, 48 h
Entries and their TGI values follow.

Guide cases for TGI, answers given:
O=c1[nH]c2ccc(CC(=S)N3CCOCC3)cc2s1 = > 100 µM
CC(C)C(C/C=C1/CC(CO)(COC(=O)CC(C(C)C)C(C)C)OC1=O)C(C)C (centres undefined) = 26.3 µM
N#CCC(=O)Nn1c(CC#N)nnc1Cc1ccccc1 = > 100 µM

The reported TGI of the compound Cc1nn(C(=O)c2ccc(Cl)cc2)c2c1C(c1ccc([N+](=O)[O-])cc1)SC(N)=N2 (centres undefined) was > 10 µM

// TGI lookup, compound = c1ccc(N=C2SC(=NNc3ccccc3)SC2=Nc2ccccc2)cc1 , result: > 100 µM
